tested-on: human glucagon receptor (human, UniProt P47871 26-477)
Sequence (P47871 26-477): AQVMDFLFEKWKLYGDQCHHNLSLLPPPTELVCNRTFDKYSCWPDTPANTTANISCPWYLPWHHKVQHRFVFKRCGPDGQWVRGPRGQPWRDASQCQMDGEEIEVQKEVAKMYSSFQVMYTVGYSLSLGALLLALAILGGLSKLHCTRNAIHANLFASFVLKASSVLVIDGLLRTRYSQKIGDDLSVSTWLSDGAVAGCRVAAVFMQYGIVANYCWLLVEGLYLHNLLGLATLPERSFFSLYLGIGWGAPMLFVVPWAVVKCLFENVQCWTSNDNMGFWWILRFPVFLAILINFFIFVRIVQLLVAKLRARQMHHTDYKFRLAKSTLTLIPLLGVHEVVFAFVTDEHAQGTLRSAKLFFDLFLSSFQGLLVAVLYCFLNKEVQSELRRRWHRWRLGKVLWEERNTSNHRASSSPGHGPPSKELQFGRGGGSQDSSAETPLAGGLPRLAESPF
assay-method-text: cell-based or functional assay
Ends that are not written are not given here.
Please respond with Met when measured IC50 (nM) (cAMP, inhibit 0.2 mM Glucagon) is strictly beneath 200 nM, and with Not met in all other cases.

Q: Please check: IC50 (nM) (cAMP, inhibit 0.2 mM Glucagon) for C(20 kDa PEG)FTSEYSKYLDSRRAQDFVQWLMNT-NH2 [[C5(20kDaPEG), E9]Glucagon(aa5-29) -NH2] , strictly under 200 nM or not?
A: Not met

Reference source: patent US20120122783A1
